# Experimental Details: Toxicity liver stage against HepG2, at 10uM
# Assay type: cell-based
# Parameters: test concentration 10 uM, cell line HepG2-A16-CD81EGFP
# Conditions: human, HepG2-A16-CD81EGFP cells; read-out: INHIBITION
Classify by measured cytotoxicity at 10 µM: Condition met if it is equal to or exceeds -20%, Condition not met if it is smaller.

INSERT INTO results (compound, category_label) VALUES
  ('CCn1nc2c(cc1=O)CN(Cc1nc(-c3ccsc3)no1)CC2', 'Condition met'),
  ('Cn1ccc(NC(=O)NC2CCCN(c3ccccc3Cl)C2=O)n1 (stereo unspecified)', 'Condition not met'),
  ('CNC(=O)c1cccc(CCNC(=O)N2CCc3ccccc3C2)c1', 'Condition met'),
  ('NCc1n[nH]c(-c2cccc(F)c2)n1', 'Condition not met'),
  ('Cn1ccnc1CN1CCCN(C(=O)C2(C#N)CCCCC2)CC1', 'Condition met'),
  ('Cc1ccc(CN2CC[C@H]3[C@H](CO[C@H]3CN(C)C)C2)o1', 'Condition not met');
